meta.source: paper PMC9207808

STUDY TARGET: Doc toxin of Salmonella enterica serovar Typhimurium (DocSTm) (Salmonella enterica serovar Typhimurium, UniProt A0A1C9CWN5 1-126)
EXPERIMENT SUMMARY: SPR; DocSTm immobilised on a Series S NTA chip (150 nM, 200-400 RU); analytes in single-cycle kinetics, typically six concentrations, kinetic 1:1 fit; 22 °C; 10 mM HEPES, 500 mM NaCl, 50 μM EDTA, 0.005% TWEEN 20, pH 8.0
CONDITION NOTES: both partners purified
pKd: −log10 of the molar value.

BINDER	pKd
Ac-WMDDEFAAIMAVHGNELRELADK-OH (tryptophan introduced at the N-terminus for spectrophotometric quantification; not part of Phd; also called wild-type peptide 1; C-terminal Phd peptide; source: synthetic peptide) [peptide 1 (Phd 52-73, Ac-WMDDEFAAIMAVHGNELRELADK-OH)]	10.14
